Known pKd of a selection of binders
# tested-target: T1, EsCas13d, nuclease-dead (Eubacterium siraeum, UniProt B0MS50, R295A;H300A;R849A;H854A)
# T1 sequence: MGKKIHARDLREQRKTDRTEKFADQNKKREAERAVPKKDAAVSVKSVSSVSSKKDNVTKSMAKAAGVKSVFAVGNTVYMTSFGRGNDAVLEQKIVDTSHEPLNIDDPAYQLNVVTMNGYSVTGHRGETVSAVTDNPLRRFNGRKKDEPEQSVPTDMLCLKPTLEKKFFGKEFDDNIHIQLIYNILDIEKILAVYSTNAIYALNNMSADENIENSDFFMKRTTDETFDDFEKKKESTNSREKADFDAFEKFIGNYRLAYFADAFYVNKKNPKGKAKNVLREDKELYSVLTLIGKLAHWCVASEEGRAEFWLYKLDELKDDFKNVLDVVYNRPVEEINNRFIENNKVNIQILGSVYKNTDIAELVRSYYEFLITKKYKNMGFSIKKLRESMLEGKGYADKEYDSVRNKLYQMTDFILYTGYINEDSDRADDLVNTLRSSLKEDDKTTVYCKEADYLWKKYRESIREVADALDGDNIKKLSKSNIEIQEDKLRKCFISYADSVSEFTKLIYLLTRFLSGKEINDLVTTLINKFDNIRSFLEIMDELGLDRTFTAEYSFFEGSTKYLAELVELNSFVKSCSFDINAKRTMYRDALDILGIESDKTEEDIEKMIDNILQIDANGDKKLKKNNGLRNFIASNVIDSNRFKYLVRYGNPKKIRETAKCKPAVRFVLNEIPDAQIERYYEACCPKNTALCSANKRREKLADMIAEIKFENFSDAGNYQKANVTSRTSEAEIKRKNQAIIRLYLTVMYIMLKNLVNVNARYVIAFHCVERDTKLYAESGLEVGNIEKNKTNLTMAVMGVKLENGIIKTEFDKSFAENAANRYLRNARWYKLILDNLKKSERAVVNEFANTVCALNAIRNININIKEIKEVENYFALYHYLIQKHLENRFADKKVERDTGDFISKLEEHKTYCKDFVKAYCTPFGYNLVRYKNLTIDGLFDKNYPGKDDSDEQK
# experimental-protocol: crRNA (strand 1, pre-loaded); Mg2+; 40 mM Tris-HCl pH 7.5, 150 mM NaCl, 6 mM MgCl2, 1 mM DTT, 0.1% Tween-20, 0.2 mg/ml BSA; 25 C; 10 min per concentration, then washed
# details: tags: His6-TwinStrep-SUMO cleaved; N-terminal SNAP kept (SNAP-Surface 488); label: 3' end held by stalled T7 RNA polymerase
pKd: −log10 of the molar value.
property-name: pKd

- target 1 insC 3' of 18,insC 3' of 3 (mixed) RNA 1: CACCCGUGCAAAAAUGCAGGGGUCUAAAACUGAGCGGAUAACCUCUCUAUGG RNA 2: GGGAAUGGAUCCACAUCUACGAAUUCGUACCAUACGAGAGGUUAUCCGCUCCACCGAGAUCGGAAGAGCACACGU: 7.49
- target 1 insG 3' of 18,insU 3' of 4 (mixed) RNA 1: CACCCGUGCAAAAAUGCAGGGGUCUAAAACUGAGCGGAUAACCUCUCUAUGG RNA 2: GGGAAUGGAUCCACAUCUACGAAUUCGUACCAUAGGAGAGGUUAUCCGCUUCACCGAGAUCGGAAGAGCACACGU: 7.20
- target 1 U11A,C21U (mixed) RNA 1: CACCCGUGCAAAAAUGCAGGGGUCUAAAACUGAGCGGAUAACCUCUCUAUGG RNA 2: GGGAAUGGAUCCACAUCUACGAAUUCGUACUAUAGAGAGGAUAUCCGCUCACCGAGAUCGGAAGAGCACACGU: 8.08
- target 1 C2G,A9U (mixed) RNA 1: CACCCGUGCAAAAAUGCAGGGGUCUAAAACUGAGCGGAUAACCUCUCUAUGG RNA 2: GGGAAUGGAUCCACAUCUACGAAUUCGUACCAUAGAGAGGUUUUCCGCUGACCGAGAUCGGAAGAGCACACGU: 8.06
